# System: UACC-257 melanoma
# RUN DESCRIPTION: NCI-60 one-dose screen, 48 h (100 = growth as untreated, 0 = no growth, -100 = all killed)
# MEASUREMENT CONDITIONS: 10 µM unless noted
This is part of a sample that, as a whole, favours compounds with a hit. Of some 83,000 tested, about 20% had one in any assay. Activity calls are given as the source filed them. Rule for the calls: active = growth percent below 10; inactive = the rest.
Field: growth. Provide a value for each of the compounds that follow.

Lab note: compound N#CC1=C(N)Oc2c(ccc3ccccc23)C1c1ccccc1 (centres undefined) tested on UACC-257 melanoma; recorded growth was 37.5% (inactive)

Lab note: compound CC(C)c1ccc(C(=O)Nc2nc3ccc(O)c(CN(C)C)c3s2)cc1 tested on UACC-257 melanoma; recorded growth was 50.9% (inactive)

Lab note: compound CN(C)CC1CCC(CN(C)C)C1=O (centres undefined) tested on UACC-257 melanoma; recorded growth was 109% (inactive)

Lab note: compound CCC1=C[C@@H]2C[C@]3(C(=O)OC)c4[nH]c5ccccc5c4CC[N@+](CC(=O)Nc4cc5c(cc4OC)N(C)[C@H]4[C@@](O)(C(=O)OC)[C@H](OC(C)=O)[C@]6(CC)C=CCN7CC[C@]54[C@@H]76)(C2)[C@H]13 tested on UACC-257 melanoma; recorded growth was 101% (inactive)

Lab note: compound CC/C(=C(/c1ccc(Cl)cc1)c1ccc(OCCN2CCCCC2)cc1)c1ccc(OC)cc1 tested on UACC-257 melanoma; recorded growth was 54.2% (inactive)

Lab note: compound Cc1cc(C(=O)Nc2ncc(Cc3cccc(C(F)(F)F)c3)s2)c2ccccc2n1 tested on UACC-257 melanoma; recorded growth was 43.3% (inactive)

Lab note: compound N=C(N)c1ccc(-c2ccc(-c3ccccc3)o2)cc1 tested on UACC-257 melanoma; recorded growth was -72.4% (active)

Lab note: compound Cn1c(I)c(C#CCO[Si](C)(C)C(C)(C)C)c(=O)[nH]c1=O tested on UACC-257 melanoma; recorded growth was 96.6% (inactive)

Lab note: compound Cc1c(-c2ccc(O)cc2)n(Cc2ccc(OCCN3CCCCCC3)cc2)c2ccc(O)cc12 tested on UACC-257 melanoma; recorded growth was 81.6% (inactive)

Lab note: compound CCOC(=O)c1ccc(NC(=O)c2nc(-c3cc(OC)c(OC)c(OC)c3)n(-c3ccc(Cl)cc3)n2)cc1 tested on UACC-257 melanoma; recorded growth was 96.5% (inactive)

Lab note: compound Cc1c[n+](Cc2ccc3ccccc3c2)cn1Cc1ccc2ccccc2c1 tested on UACC-257 melanoma; recorded growth was -26.1% (active)

Lab note: compound COC(=O)/C=C1/SC(=Nc2cccc(OC)c2)N(CCc2c[nH]c3ccc(O)cc23)C1=O tested on UACC-257 melanoma; recorded growth was 57.7% (inactive)

Lab note: compound CC(=O)N1N=C(c2ccc(Nc3nc(Nc4ccccc4)nc(Nc4ccccc4)n3)cc2)CC1c1cccc([N+](=O)[O-])c1 (centres undefined) tested on UACC-257 melanoma; recorded growth was 92.3% (inactive)

Lab note: compound O=C1/C(=C/c2ccccc2O)CC/C1=C\c1ccccc1O tested on UACC-257 melanoma; recorded growth was 86.3% (inactive)

Lab note: compound COC(=O)c1cc(N=C2NC(=O)/C(=C/C=C/c3ccccc3)S2)ccc1O tested on UACC-257 melanoma; recorded growth was 70.9% (inactive)

Lab note: compound Cc1[nH]c(=O)[nH]c(=O)c1Br tested on UACC-257 melanoma; recorded growth was 88.1% (inactive)

Lab note: compound C#COc1cccc(Nc2c(C#N)cnc3ncc(NC(=O)CCl)cc23)c1 tested on UACC-257 melanoma; recorded growth was 47.1% [6.25 µM] (inactive)

Lab note: compound CC(C)(C)[Si](C)(C)OC1[C@@H](CNC(=O)NC(=O)NC(N)=O)O[C@@H](n2cnc3c(NC(=O)Nc4ccccc4)ncnc32)[C@H]1O[Si](C)(C)C(C)(C)C (some centres undefined) tested on UACC-257 melanoma; recorded growth was 94% (inactive)

Lab note: compound COc1cc(-c2csc(NC(=O)c3ccc(N4CCOCC4)c(C(F)(F)F)c3)n2)cc(OC)c1OC tested on UACC-257 melanoma; recorded growth was 26.6% (inactive)

Lab note: compound Cc1[nH]c(C(=O)Nc2ccccc2OC2CCNCC2)c(Cl)c1Cl tested on UACC-257 melanoma; recorded growth was 13.7% (inactive)

Lab note: compound Cc1ccc(C)n1-c1ccccc1-n1c(C)ccc1C tested on UACC-257 melanoma; recorded growth was 103% (inactive)

Lab note: compound CC(C)(C)CC(C)(C)NC(=O)Nc1ncccc1OCc1ccccc1 tested on UACC-257 melanoma; recorded growth was 85.8% (inactive)

Lab note: compound Cc1ccc(-c2nc([P+](c3ccccc3)(c3ccccc3)c3ccccc3)c(S(=O)(=O)c3ccc(C)cc3)o2)cc1 tested on UACC-257 melanoma; recorded growth was 3.98% (active)

Lab note: compound CC1=NC2=Nn3c(c4cnn(-c5ccccc5)c4n/c3=N\N)NN2C(c2ccccc2)=C1 tested on UACC-257 melanoma; recorded growth was 101% (inactive)

Lab note: compound CCNCCNc1cc(-c2ccc(C(F)(F)F)cc2)c(C#N)c2nc3ccccc3n12 tested on UACC-257 melanoma; recorded growth was -80.2% (active)

Lab note: compound O=S(=O)(NCCNc1nccc(-c2c(-c3ccc(F)c(O)c3)nc3sccn23)n1)c1ccc(O)cc1 tested on UACC-257 melanoma; recorded growth was 58.9% (inactive)

Lab note: compound O=C(Nc1ccccc1O)c1ccc(CNC(=O)c2sccc2Nc2ccnc(C(F)(F)F)c2)cc1 tested on UACC-257 melanoma; recorded growth was 46.5% (inactive)

Lab note: compound CC(C)c1ccc(Cc2cnc(NC(=O)c3cc(Br)cs3)s2)cc1 tested on UACC-257 melanoma; recorded growth was 53.4% (inactive)

Lab note: compound CCOC(=O)c1nn(-c2ccc(S(N)(=O)=O)cc2)c2nc(C)cc(=O)n12 tested on UACC-257 melanoma; recorded growth was 112% (inactive)

Lab note: compound COCCNC(=O)Nc1ccc2nc(-c3cccs3)c(-c3cccs3)nc2c1 tested on UACC-257 melanoma; recorded growth was 103% (inactive)

Lab note: compound Clc1cccc(Nc2ncnc3ccc(-c4cnc5[nH]ccc5c4)cc23)c1 tested on UACC-257 melanoma; recorded growth was 75% (inactive)

Lab note: compound O=C(CN1C(=O)NC2NC(=O)NC21)N/N=C/c1ccccc1[N+](=O)[O-] (centres undefined) tested on UACC-257 melanoma; recorded growth was 116% (inactive)

Lab note: compound CC(C)(Sc1cc(C(C)(C)C)c(O)c(C(C)(C)C)c1)Sc1cc(C(C)(C)C)c(OC(=O)CCCC(=O)O)c(C(C)(C)C)c1 tested on UACC-257 melanoma; recorded growth was 74.6% (inactive)

Lab note: compound NC(N)=NCCCCCNc1noc(Cc2c[nH]c3cc(Br)ccc23)n1 tested on UACC-257 melanoma; recorded growth was 65.7% (inactive)
